Test system: SK-MEL-28 melanoma
Assay: NCI-60 one-dose screen, 48 h (100 = growth as untreated, 0 = no growth, -100 = all killed)
Conditions: 10 µM unless noted
Protocol: Growth inhibition of the SK-MEL-28 human tumor cell line is measured as a screen for anti-cancer activity. Cells are grown in 96 well plates and exposed to the test compound for 48 hours. Compounds are tested at a single concentration, which is 10^-5 M for most compounds. The reported endpoint is percent growth (GI% or GIPRCNT), where numbers from 0 - 100% represent growth inhibition, and numbers from -100% - 0 represent cell death. For example, a value of 40 represents 60% growth inhibition. […]
The panel holds about 83,000 compounds, 20% with a hit somewhere; the sample as a whole holds those more often.
Consider the following molecules and their measured growth readings.
Give just the number in %; leave the unit off.

{"molecule": "Oc1ccc(Cl)cc1-c1cc(-c2ccccc2Cl)[nH]n1", "subject-of-test": "SK-MEL-28 melanoma", "growth, %": 89.7}

Exercise: Give reported growth value for O=C1/C(=C\c2cccn2Cc2ccc(Cl)cc2)c2ccccc2N1c1c(Cl)cccc1Cl
Key: 91

Exercise: Give reported growth value for OC(c1cc2c(Cl)cc(Cl)cc2c2cc(C(F)(F)F)ccc12)C1CCCCN1 (stereo not drawn)
Key: -75.4

Exercise: Give reported growth value for O=C(C(=O)c1cccnc1)c1cccnc1
Key: 135

Exercise: Give reported growth value for CCN(CC)Cc1cc(Nc2ccnc3cc(Cl)ccc23)cc(-c2ccc(Cl)cc2)c1O
Key: 46

Exercise: Give reported growth value for O=C(CS)OCC(COC(=O)CS)(COC(=O)CS)COC(=O)CS
Key: 90.1

Exercise: Give reported growth value for Cc1cc(C)cc(Nc2cc(C)nc3nc(C(F)(F)F)nn23)c1
Key: 50.8

Exercise: Give reported growth value for O=C1CC2(O)CSc3nc(=O)cc(n32)N1 (stereo not drawn)
Key: 104

Exercise: Give reported growth value for COc1ccc(C2CC(c3ccc(Nc4ccnc5cc(Cl)ccc45)cc3)=NN2c2ccccc2)cc1 (stereo not drawn)
Key: 97.3

Exercise: Give reported growth value for CCOC(=O)NNc1cccc(Cl)c1
Key: 109

Exercise: Give reported growth value for CCCCCCCCCCCCCC[N+](C)(C)CCCCCCCCCCCCCC
Key: 89.3

Exercise: Give reported growth value for Cn1nc(C(F)(F)F)cc1-c1c[nH]c(OCc2ccc(Cl)cc2)c(-c2ccc(Cl)c(C(F)(F)F)c2)c1=O
Key: 10.1

Exercise: Give reported growth value for CC(C)N=C1CCCC1C(=S)SSC(=S)C1CCCC1=NC(C)C (stereo not drawn)
Key: 81

###

Tested on: UACC-62 melanoma
Test: NCI-60 one-dose screen, 48 h
Conditions: 10 µM unless noted
The panel holds about 83,000 compounds, 20% with a hit somewhere; the sample as a whole holds those more often. Activity calls are given as the source filed them. How the source made its calls: active means growth percent below 10; inactive means the rest.
Could you please pick one outcome from this set? T for active, F for inactive

Worked examples, 5 compounds total:
{"compound": "N[C@@H](CO)C(=O)O", "class-name": "F"}
{"compound": "O=C(CS)OCC(COC(=O)CS)(COC(=O)CS)COC(=O)CS", "class-name": "F"}
{"compound": "C=C(C)C1CCC2(C(=O)O)CCC3(C)C(CCC4C5(C)CCC(O)C(C)(C)C5CCC43C)C12 (centres undefined)", "class-name": "F"}
{"compound": "CNCc1ccccc1CN(CC(=O)Nc1ccc2c(c1)CC1(C2)C(=O)Nc2ncccc21)C(=O)C(C)(C)C (centres undefined)", "class-name": "F"}
{"compound": "CC(C)NC(=O)OCC#CCOC(=O)NC(C)C", "class-name": "F"}

Exercise: In this assay, the call recorded for Cc1nc2ccc(Nc3nc(Cl)nc(N4CCOCC4)n3)cc2n1Cc1ccccc1 was what?
Key: F

Exercise: In this assay, the call recorded for Clc1ccccc1Nc1nnc(-c2ccncc2)s1 was what?
Key: F

Exercise: In this assay, the call recorded for COc1ccc(-c2[nH]nc(N)c2-c2cc(OC)c(OC)c(OC)c2)cc1 was what?
Key: F

Exercise: In this assay, the call recorded for O=c1cc(N2CCOCC2)oc2c(-c3ccc4c(c3)OCCO4)csc12 was what?
Key: T

Exercise: In this assay, the call recorded for O=C(C(=O)c1cccnc1)c1cccnc1 was what?
Key: F

Exercise: In this assay, the call recorded for COc1cc2c(cc1I)-c1c(cc(OC)c(OC)c1OC)CC[C@@H]2NC(C)=O was what?
Key: F

Exercise: In this assay, the call recorded for CCCC(CCC)NCC(O)c1cc(-c2ccc(C(F)(F)F)cc2)nc(C(F)(F)F)c1 (centres undefined) was what?
Key: T

Exercise: In this assay, the call recorded for COc1cc2c(cc1OCCCOc1cc3c(cc1OC)C(=O)N1CCC[C@H]1C=N3)C=CC(C)(C)O2 was what?
Key: F

Exercise: In this assay, the call recorded for Cc1ccc(N2C3c4ccccc4N(S(=O)(=O)c4ccc(C)cc4)C2c2ccccc2N3S(=O)(=O)c2ccc(C)cc2)cc1 was what?
Key: F

Exercise: In this assay, the call recorded for CC1CCN(Cc2ccc(NC(=O)c3cc4ccc5cccnc5c4[nH]3)cc2)CC1 was what?
Key: T

Exercise: In this assay, the call recorded for O=C(Nc1ccccc1Cl)Oc1ccc2ccccc2c1 was what?
Key: F
